viability, T/C values, listed per item
Test system: IGROV1 complex spheroids (HUVEC, MSC), viability % test/control
Assay: Anticancer human tumor IGROV1 cell line growth inhibition [GQUAD];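 note: spheroids exposed to compounds for 7 days before readout; 100% = DMSO vehicle control viability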
Details: second compound 1 µM; first compound 10 µM; hits give low values
REPORTED METRIC: viability, T/C (%)

compound="COc1cc(C2c3cc4c(cc3C(OC3OC5COC(C)OC5C(O)C3O)C3COC(=O)C23)OCO4)cc(OC)c1O (stereo not given) + Cc1[nH]c2ccc(F)cc2c1-c1nc2c3cccnc3c3ncccc3c2[nH]1" units_label=% readout_value=3.15
compound="CC(C)n1c(=O)n(C)c2cnc3cc(F)c(-c4ccc(OCCCN5CCCCC5)nc4)cc3c21 + Cc1[nH]c2ccc(F)cc2c1-c1nc2c3cccnc3c3ncccc3c2[nH]1" units_label=% readout_value=3.26
compound="CC1COCCN1c1cc(C2(S(C)(=N)=O)CC2)nc(-c2ccnc3[nH]ccc23)n1 (stereo not given) + Cc1cnc(CNC(=O)c2c(=O)c3ccc(N4CCCN(C)CC4)nc3n3c2sc2ccccc23)cn1" units_label=% readout_value=6.04
compound="CC(C)n1c(=O)n(C)c2cnc3cc(F)c(-c4ccc(OCCCN5CCCCC5)nc4)cc3c21 + Cc1cnc(CNC(=O)c2c(=O)c3ccc(N4CCCN(C)CC4)nc3n3c2sc2ccccc23)cn1" units_label=% readout_value=7.74
compound="CC1COCCN1c1cc(-c2ccnn2C)c2ccnc(-c3ccn[nH]3)c2n1 (stereo not given) + Cc1[nH]c2ccc(F)cc2c1-c1nc2c3cccnc3c3ncccc3c2[nH]1" units_label=% readout_value=2.28
compound="COc1cc(C2c3cc4c(cc3C(OC3OC5COC(C)OC5C(O)C3O)C3COC(=O)C23)OCO4)cc(OC)c1O (stereo not given) + CN(C)c1ccc(Nc2c3ccc(NC(=O)CCN4CCCC4)cc3nc3cc(NC(=O)CCN4CCCC4)ccc23)cc1" units_label=% readout_value=5.75
compound="CC(C)(O)C1CCC(Nc2ccc3ncc(-c4cccc(C(F)(F)F)c4)n3n2)CC1 (stereo not given) + Cc1[nH]c2ccc(F)cc2c1-c1nc2c3cccnc3c3ncccc3c2[nH]1" units_label=% readout_value=2.43
compound="CC(=O)O[C@H]1C(=O)[C@@]2(C)[C@H]([C@H](OC(=O)c3ccccc3)[C@]3(O)C[C@H](OC(=O)[C@H](O)[C@@H](NC(=O)c4ccccc4)c4ccccc4)C(C)=C1C3(C)C)[C@]1(OC(C)=O)CO[C@@H]1C[C@@H]2O + CN(C)c1ccc(Nc2c3ccc(NC(=O)CCN4CCCC4)cc3nc3cc(NC(=O)CCN4CCCC4)ccc23)cc1" units_label=% readout_value=5.74
compound="CC1COCCN1c1cc(C2(S(C)(=N)=O)CC2)nc(-c2ccnc3[nH]ccc23)n1 (stereo not given) + Cc1[nH]c2ccc(F)cc2c1-c1nc2c3cccnc3c3ncccc3c2[nH]1" units_label=% readout_value=2.64
compound="O=c1[nH]cc(F)c(=O)[nH]1 + Cc1cnc(CNC(=O)c2c(=O)c3ccc(N4CCCN(C)CC4)nc3n3c2sc2ccccc23)cn1" units_label=% readout_value=9.16

====

System: IGROV1 complex spheroids (HUVEC, MSC), viability % test/control
Test: Anticancer human tumor IGROV1 cell line growth inhibition [GQUAD];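 note: spheroids exposed to compounds for 7 days before readout; 100% = DMSO vehicle control viability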
Settings: second compound 10 µM; first compound 0.316 µM; hits give low values
REPORTED METRIC: viability, T/C (%)

compound="CCc1c2c(nc3ccc(O)cc13)-c1cc3c(c(=O)n1C2)COC(=O)[C@]3(O)CC + Cc1cnc(CNC(=O)c2c(=O)c3ccc(N4CCCN(C)CC4)nc3n3c2sc2ccccc23)cn1" readout_value=0.4
compound="C#Cc1c(F)ccc2cc(O)cc(-c3ncc4c(N5CC6CCC(C5)N6)nc(OCC56CCCN5CC(F)C6)nc4c3F)c12 (stereo not drawn) + Cc1cnc(CNC(=O)c2c(=O)c3ccc(N4CCCN(C)CC4)nc3n3c2sc2ccccc23)cn1" readout_value=9.03
compound="COc1ncnc(C2CC2)c1-c1ncc2cnn(Cc3ccc(-c4nc(C(F)(F)F)cn4C(C)C)cc3)c2n1 + Cc1[nH]c2ccc(F)cc2c1-c1nc2c3cccnc3c3ncccc3c2[nH]1" readout_value=4.15
